- Tested on: 845751-090-R-J2-PDC tumor spheroid viability;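 note: spheroids exposed to compounds for 7 days before readout; CTG3D luminescence normalised so that 100% = DMSO vehicle control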
- ASSAY: Anticancer human tumor 845751-090-R-J2-PDC patient-derived head and neck squamous carcinoma cell line growth inhibition [IpAb]
- CONDITION_DESCRIPTION: second compound 10 µM; first compound 1 µM; stronger effect = lower value; spheroids with HUVEC and MSC
- Method: Combinatorial screen of targeted agents with ipatasertib and abemaciclib in multi-cell type tumor spheroids […] Compounds. […] If the clinical Cmax for an agent had not been determined, the highest concentration tested was 10 microM. NCI60 Cell Culture. […] The optimal seeding densities for each of the cell lines at each time point assessed were determined prior to performing the concentration response studies. […]
# viability, T/C values compiled below
Just the number in %, nothing appended.

Take a look at these entries with their results.
# MOLECULE, viability, T/C [%]
measured = [
    ("C=CC(=O)N1CCN(c2nc(=O)n(-c3c(C)ccnc3C(C)C)c3nc(-c4c(O)cccc4F)c(F)cc23)C(C)C1 (stereo not given) + CC(C)NCC(C(=O)N1CCN(c2ncnc3c2C(C)CC3O)CC1)c1ccc(Cl)cc1", 12.5),
    ("Cn1ncc(Cl)c1-c1cc(C(=O)NC(CN)Cc2cccc(F)c2)sc1Cl (stereo not given) + CC(C)NCC(C(=O)N1CCN(c2ncnc3c2C(C)CC3O)CC1)c1ccc(Cl)cc1", 13.5),
    ("CC1(C)CCC(CN2CCN(c3ccc(C(=O)NS(=O)(=O)c4ccc(NCC5CCOCC5)c([N+](=O)[O-])c4)c(Oc4cnc5[nH]ccc5c4)c3)CC2)=C(c2ccc(Cl)cc2)C1 + CC(C)NCC(C(=O)N1CCN(c2ncnc3c2C(C)CC3O)CC1)c1ccc(Cl)cc1", 15.5),
    ("CCCS(=O)(=O)Nc1ccc(F)c(C(=O)c2c[nH]c3ncc(-c4ccc(Cl)cc4)cc23)c1F + CC(C)NCC(C(=O)N1CCN(c2ncnc3c2C(C)CC3O)CC1)c1ccc(Cl)cc1", 14.7),
]

Please turn your attention to the following entry.
Give recorded viability, T/C. Cc1nc(NC(=O)N2CCCC2C(N)=O)sc1-c1ccnc(C(C)(C)C(F)(F)F)c1 (stereo not given) + CC(C)NCC(C(=O)N1CCN(c2ncnc3c2C(C)CC3O)CC1)c1ccc(Cl)cc1
12
